Molecular target: Alpha-1D adrenergic receptor (Homo sapiens, UniProt P25100)
Sequence (P25100 whole entry): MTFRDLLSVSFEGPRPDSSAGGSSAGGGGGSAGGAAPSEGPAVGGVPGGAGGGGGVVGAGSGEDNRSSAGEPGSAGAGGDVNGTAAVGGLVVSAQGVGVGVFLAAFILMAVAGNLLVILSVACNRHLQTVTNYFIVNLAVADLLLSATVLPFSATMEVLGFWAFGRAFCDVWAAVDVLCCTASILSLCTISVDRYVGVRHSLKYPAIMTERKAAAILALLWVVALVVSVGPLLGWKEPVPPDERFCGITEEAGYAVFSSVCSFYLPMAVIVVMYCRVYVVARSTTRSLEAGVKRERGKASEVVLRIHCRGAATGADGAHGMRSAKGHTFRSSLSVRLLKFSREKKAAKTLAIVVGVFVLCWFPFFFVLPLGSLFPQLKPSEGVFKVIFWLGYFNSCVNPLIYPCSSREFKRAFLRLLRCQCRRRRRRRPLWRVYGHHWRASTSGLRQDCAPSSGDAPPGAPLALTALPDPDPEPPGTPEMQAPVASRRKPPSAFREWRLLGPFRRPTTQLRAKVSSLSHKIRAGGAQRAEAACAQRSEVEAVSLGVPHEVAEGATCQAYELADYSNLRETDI
pIC50: −log10 of the molar value.
Compiled literature pIC50, tested on Alpha-1D adrenergic receptor (Homo sapiens, UniProt P25100).
Threshold rule: pIC50 greater than or equal to 7 is criterion met; below that, criterion not met.

Q: Determine whether measured pIC50 meets or exceeds 7 for OCc1cc([C@@H](O)CNCCc2ccc(CNCCc3ccccc3)cc2)ccc1O
A: criterion not met

Q: // query: O=c1ccc2c([C@@H](O)CNCCc3cccc(CNCCc4ccccn4)c3)ccc(O)c2[nH]1
A: criterion not met

Q: // query: Cc1cccc2c(CCNCc3cccc(CCNC[C@H](O)c4ccc(O)c5[nH]c(=O)sc45)c3)c[nH]c12
A: criterion not met

Q: // query: O=c1[nH]c2c(O)ccc([C@@H](O)CNCCCc3cccc(CNCCc4c(Cl)cccc4Cl)c3)c2s1
A: criterion met

Q: // query: CCN(CC)C(=O)c1ccccc1OCc1c[nH]cn1
A: criterion not met

Q: // query: CC[C@@H]1O[C@](/C=C/C2CC2)(C(F)(F)F)c2c(ccc(F)c2F)NC1=O
A: criterion not met

Q: // query: O=C1c2ccccc2C(=O)N1Cc1ccc(CCN2CCN(c3ccc(Cl)cc3)CC2)cc1
A: criterion met

---

Compiled literature pIC50, tested on Alpha-1D adrenergic receptor (Homo sapiens, UniProt P25100).
pIC50: −log10 of the molar value.
Grouping by measured pIC50 is done with the following cut points: lower level (below 6), middle level (6 to below 7), upper level (7 or more)

Q: Lab log: N#Cc1ccccc1N1CCN(CCc2ccc(CN3C(=O)c4ccccc4C3=O)cc2)CC1 — assign pIC50 category
A: upper level

Q: // query: O=C1c2ccccc2C(=O)N1Cc1ccc(CCN2CCN(c3ccc(C(F)(F)F)cc3)CC2)cc1
A: upper level

Q: // query: N=C(Nc1ccc2c(c1)CCN2C1CCNCC1)c1cccs1
A: lower level

Q: // query: CC(Cc1cccc(CNCCc2c(Cl)cccc2Cl)c1)NC[C@H](O)c1ccc(O)c2[nH]c(=O)sc12 (some centres not stated)
A: upper level

Q: // query: c1ccc2c3c([nH]c2c1)CN1CCc2cc4c(cc2[C@@H]1C3)OCO4
A: lower level

Q: // query: CCN(CC)C(=O)c1ccccc1OCC1=NCCN1
A: lower level

Q: // query: O=C1c2ccccc2C(=O)N1Cc1ccc(CCN2CCN(c3ccccc3F)CC2)cc1
A: lower level

Q: // query: CCCNC(=O)c1ccccc1NCC1=NCCN1
A: middle level

Q: // query: Cc1ncoc1-c1ccccc1NCC1=NCCN1
A: middle level

Q: // query: O=C(NC1CC1)c1ccccc1NCC1=NCCN1
A: lower level

Q: // query: CO/N=C/c1ccccc1NCC1=NCCN1
A: upper level

Q: // query: COc1cccc2[nH]c3c(c12)CC1c2cc4c(cc2CCN1C3)OCO4 (configuration not stated)
A: lower level

Q: // query: Fc1ccc2[nH]c3c(c2c1)CC1c2cc4c(cc2CCN1C3)OCO4 (configuration not stated)
A: lower level

---

Compiled literature pIC50, tested on Alpha-1D adrenergic receptor (Homo sapiens, UniProt P25100).
Please report pIC50 as the negative decimal logarithm of the molar concentration, giving only the number.

Q: Consider the compound O=C1c2ccccc2C(=O)N1Cc1ccc(CCN2CCN(c3ccccn3)CC2)cc1 and give its measured pIC50.
A: 7.95

Q: // query: CCOc1ccccc1N1CCN(CCc2ccc(CN3C(=O)c4ccccc4C3=O)cc2)CC1
A: 6.62

Q: // query: Cc1ccc(N2CCN(CCc3ccc(CN4C(=O)c5ccccc5C4=O)cc3)CC2)cc1
A: 6.46

Q: // query: O=c1[nH]c2c(O)ccc([C@@H](O)CNCCc3ccc(CNCCc4ccccc4F)cc3)c2s1
A: 7.30

Q: // query: O=c1[nH]c2c(O)ccc([C@@H](O)CNCCc3ccccc3CNCCc3ccccc3F)c2s1
A: 6.70

Q: // query: O=c1[nH]c2c(O)ccc([C@@H](O)CNCCc3cccc(CNCCc4ccccn4)c3)c2s1
A: 6.70

Q: // query: COc1ccccc1CNCCc1cccc(CCNC[C@H](O)c2ccc(O)c3[nH]c(=O)sc23)c1
A: 7.60

Q: // query: O=c1[nH]c2c(O)ccc([C@@H](O)CNCCc3cccc(CNCc4ccccc4Cl)c3)c2s1
A: 6.80

Q: // query: COc1ccccc1N1CCN(CCc2ccc(CN3C(=O)c4ccccc4C3=O)cc2)CC1
A: 5.91

Q: // query: CN(C)CCCOc1ccc(CCNC(=O)c2cc(Br)c[nH]2)cc1Br
A: 6.25

Q: // query: O=C1c2ccccc2C(=O)N1Cc1ccc(CCN2CCN(c3ccc(F)cc3F)CC2)cc1
A: 6.31

Q: // query: CCN(C)C(=O)c1ccccc1NCC1=NCCN1
A: 5.17

Q: // query: O=c1[nH]c2c(O)ccc([C@@H](O)CNCCc3cccc(CNCCc4ccccc4F)c3)c2s1
A: 6.90

Q: // query: COc1ccc2[nH]c3c(c2c1)CC1c2cc4c(cc2CCN1C3)OCO4 (centres undefined)
A: 5.39

Q: // query: CS(=O)(=O)c1ccccc1N1CCN(CCc2ccc(CN3C(=O)c4ccccc4C3=O)cc2)CC1
A: 8.00

Q: // query: O=c1[nH]c2c(O)ccc([C@@H](O)CNCCOc3cccc(CNCCc4ccccc4F)c3)c2s1
A: 7.60

---

Compiled literature IC50, tested on Alpha-1D adrenergic receptor (Homo sapiens).
Give the value in nM but do not write nM after it.

Q: GET /values?readout=IC50&system=Alpha-1D adrenergic receptor (Homo sapiens)&item= O=c1[nH]c2c(O)ccc([C@@H](O)CNCCc3cccc(CNCCc4c(Cl)cccc4Cl)c3)c2s1
A: 63.1

Q: // query: COc1ccccc1CNCc1ccc(CCNC[C@@H](O)c2ccc(O)c3[nH]c(=O)sc23)cc1
A: 79.4

Q: // query: COc1ccc(CNCc2cccc(CCNC[C@H](O)c3ccc(O)c4[nH]c(=O)sc34)c2)cc1
A: 158

Q: // query: CC(=O)c1ccc(N2CCN(CCc3ccc(CN4C(=O)c5ccccc5C4=O)cc3)CC2)cc1
A: 866

Q: // query: CCCNC(=O)c1ccccc1NCc1c[nH]cn1
A: 871

Q: // query: O=c1[nH]c2c(O)ccc([C@@H](O)CNCCc3ccc(CNCCc4c(Cl)cccc4Cl)cc3)c2s1
A: 79.4

Q: // query: N#Cc1ccc(N2CCN(CCc3ccc(CN4C(=O)c5ccccc5C4=O)cc3)CC2)c(F)c1
A: 957

Q: // query: O=C1c2ccccc2C(=O)N1Cc1ccc(CCN2CCN(Cc3ccccc3)CC2)cc1
A: 116

Q: // query: CNC(=O)c1ccccc1NCC1=NCCN1
A: 89.1
